Entries below carry reported pIC50 on Protein cereblon (Homo sapiens).
Sequence (Q96SW2 whole entry): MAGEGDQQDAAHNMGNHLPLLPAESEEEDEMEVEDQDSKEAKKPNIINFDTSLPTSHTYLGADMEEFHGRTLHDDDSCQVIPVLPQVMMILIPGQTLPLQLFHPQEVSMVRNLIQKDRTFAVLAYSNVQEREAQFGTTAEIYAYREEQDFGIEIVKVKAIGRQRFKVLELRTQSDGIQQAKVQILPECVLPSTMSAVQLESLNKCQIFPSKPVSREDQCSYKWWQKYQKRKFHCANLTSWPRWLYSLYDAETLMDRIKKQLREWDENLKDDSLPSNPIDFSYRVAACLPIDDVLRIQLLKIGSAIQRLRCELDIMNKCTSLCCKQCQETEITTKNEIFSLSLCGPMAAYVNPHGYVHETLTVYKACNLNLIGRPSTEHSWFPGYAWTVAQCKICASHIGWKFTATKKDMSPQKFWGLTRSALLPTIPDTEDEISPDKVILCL
pIC50: −log10 of the molar value.
measuredMetric: pIC50

Ask: Give a short answer stating reported pIC50 for Cc1cc(-c2nc(Nc3cnn(C4CCN(CC5CCN(c6ccc7c(c6)C(=O)N(C6CCC(=O)NC6=O)C7=O)CC5)CC4)c3)ncc2F)ccc1CNC(=O)c1cn(C(C)(C)C)nn1 (configuration not stated) .
Result: 6.61

Ask: Quote pIC50 reported for Nc1ncnc2c1c(-c1ccc(Oc3ccccc3)cc1)nn2C1CCN(C(=O)CN2CCN(CC3CN(c4ccc5c(c4)C(=O)N(C4CCC(=O)NC4=O)C5=O)C3)CC2)CC1 (configuration not stated) please.
Result: 6.55
